Listed here: compounds with reported IC50 for HCK (Homo sapiens, UniProt P08631).
Quantity Name: IC50 (nM)

CCc1nnc2n1CCN([C@H]1CC[C@@H](n3cc(-c4ccc(NC(=O)c5cc6ccccc6n5C)c(OC)c4)c4c(N)ncnc43)CC1)C2 = 11
COc1cc(-c2nn([C@H]3CC[C@H](N4CCn5c(C)nnc5C4)CC3)c3ncnc(N)c23)ccc1NC(=O)c1cc2ccccc2n1C = 1.8
Nc1ncnc2c1c(-c1ccc(Oc3ccccc3)cc1)cn2[C@H]1CC[C@H](N2CCn3c(nnc3C(F)(F)F)C2)CC1 = 23
CN1C2CCC1CC(N1CCC(n3nc(-c4ccc(NC(=O)c5cc6ccccc6n5C)cc4)c4c(N)ncnc43)CC1)C2 (stereo not shown) = 2.05
CN1C2CCC1CN([C@H]1CC[C@@H](n3nc(-c4ccc(Oc5ccccc5)cc4)c4c(N)ncnc43)CC1)C2 = 14.5
Nc1ncnc2c1c(-c1ccc(Oc3ccccc3)cc1)cn2[C@H]1CC[C@@H](NCc2cccnc2)CC1 = 0.9
Nc1ncnc2c1c(-c1ccc(Oc3ccccc3)cc1)cn2[C@H]1CC[C@H](NCC(=O)O)CC1 = 4.2
